Quick reference for Biochem EGFR %Inhibition among some molecules
Molecular target: EGFR (Homo sapiens, UniProt P00533)
Construct: Add 7 ug A431 cell lysate per well (EGFR source); endogenous in cells; host or cells: A431
Sequence (P00533 25-1210): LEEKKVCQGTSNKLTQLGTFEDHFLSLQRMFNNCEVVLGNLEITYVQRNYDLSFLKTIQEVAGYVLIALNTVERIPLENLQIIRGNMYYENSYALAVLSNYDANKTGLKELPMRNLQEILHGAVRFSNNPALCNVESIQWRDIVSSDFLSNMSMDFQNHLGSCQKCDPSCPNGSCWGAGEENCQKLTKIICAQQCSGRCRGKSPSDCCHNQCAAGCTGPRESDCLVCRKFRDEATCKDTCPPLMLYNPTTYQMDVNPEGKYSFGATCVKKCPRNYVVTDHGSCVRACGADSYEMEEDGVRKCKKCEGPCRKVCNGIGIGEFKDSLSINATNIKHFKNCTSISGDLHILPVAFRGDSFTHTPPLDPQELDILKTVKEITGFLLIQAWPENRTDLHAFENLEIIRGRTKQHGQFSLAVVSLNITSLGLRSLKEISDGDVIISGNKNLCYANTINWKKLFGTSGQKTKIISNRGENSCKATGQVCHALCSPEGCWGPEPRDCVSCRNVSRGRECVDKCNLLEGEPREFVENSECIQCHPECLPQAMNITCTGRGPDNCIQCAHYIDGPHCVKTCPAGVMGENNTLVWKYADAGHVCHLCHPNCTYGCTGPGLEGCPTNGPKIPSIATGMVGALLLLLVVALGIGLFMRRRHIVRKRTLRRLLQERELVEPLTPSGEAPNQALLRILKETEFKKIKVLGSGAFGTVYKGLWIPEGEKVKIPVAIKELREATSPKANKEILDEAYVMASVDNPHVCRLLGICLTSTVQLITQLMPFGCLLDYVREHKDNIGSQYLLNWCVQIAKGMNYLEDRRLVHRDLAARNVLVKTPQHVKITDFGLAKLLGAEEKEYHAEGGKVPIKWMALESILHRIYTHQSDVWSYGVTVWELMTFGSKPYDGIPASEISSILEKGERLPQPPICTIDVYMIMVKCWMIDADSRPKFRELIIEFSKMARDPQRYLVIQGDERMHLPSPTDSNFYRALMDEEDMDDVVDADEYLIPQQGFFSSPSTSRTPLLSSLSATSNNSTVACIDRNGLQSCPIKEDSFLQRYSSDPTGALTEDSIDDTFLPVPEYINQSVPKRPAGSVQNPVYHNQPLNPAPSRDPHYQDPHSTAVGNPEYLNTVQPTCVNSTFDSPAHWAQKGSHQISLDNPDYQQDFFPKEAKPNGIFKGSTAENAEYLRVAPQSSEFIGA
Experiment: EGFR ELISA assay (in vitro kinase activity, EGFR captured from A431 cell lysate)
Type: biochemical
Set-up: concentration or dose not given beside the values
Hi! Could you send only the number? It should be in %, unit omitted.

O=C1Nc2ccc(S(=O)(=O)Nc3ccc(C(F)(F)F)cc3)cc2C1=Cc1cccc(Oc2ccccc2)c1 = 43.7
Cc1c(Br)ccc2c1C(=Cc1c[nH]c3ccccc13)C(=O)N2 = -49.7
O=C1Nc2ccc(CCCl)cc2C1=Cc1cc2c(cc1Cl)OCO2 = -12.1
O=C1Nc2c(Br)cc(Br)cc2C1=Cc1cc2c(cc1Cl)OCO2 = -6.3

Query Cc1c(Br)ccc2c1C(=Cc1cccc(Br)c1)C(=O)N2 yields Biochem EGFR %Inhibition of -7.2

Entry under test: CC(C)(C)c1cc(C=C2C(=O)Nc3ccc(S(=O)(=O)Nc4ccc(C(F)(F)F)cc4)cc32)cc([N+](=O)[O-])c1O . Its Biochem EGFR %Inhibition was 22.2

The recorded Biochem EGFR %Inhibition for CC(=O)n1cc(C=C2C(=O)Nc3ccc(S(=O)(=O)Nc4ccc(C(F)(F)F)cc4)cc32)c2ccccc21 is 15.8

// Biochem EGFR %Inhibition value for C=C(C)C1CC=C(C=C2C(=O)Nc3c(Br)cc(Br)cc32)CC1 (stereo not shown) : 20.2

Reported Biochem EGFR %Inhibition ( CCOC(=O)c1cc(C=C2C(=O)Nc3c(Br)cc(Br)cc32)oc1C ) = 19.4

So for CNS(=O)(=O)c1ccc2c(c1)C(=Cc1nn(C)cc1Cl)C(=O)N2 , the logged Biochem EGFR %Inhibition turned out to be 11.6

The recorded Biochem EGFR %Inhibition for CNS(=O)(=O)c1ccc2c(c1)C(=Cc1ccc(N(C)C)c3ccccc13)C(=O)N2 is 40.5

Summary for this molecule, O=C1Nc2ccc(S(=O)(=O)Nc3ccc(C(F)(F)F)cc3)cc2C1=Cc1coc2ccc(Cl)cc2c1=O : Biochem EGFR %Inhibition is 1.5

The recorded Biochem EGFR %Inhibition for CNS(=O)(=O)c1ccc2c(c1)C(=Cc1c(OC)ccc3ccccc13)C(=O)N2 is -5.7

// Biochem EGFR %Inhibition lookup, molecule = COc1ccc(C=C2C(=O)Nc3c(Br)cc(Br)cc32)c(OC)c1OC , result: 27.5

Kindly note the recorded Biochem EGFR %Inhibition for N#Cc1ccc(C=C2C(=O)Nc3ccc(S(=O)(=O)N4CCOCC4)cc32)cc1 , which is -2.0

get_value(item= CC(C)(C)c1cc(C=C2C(=O)Nc3c(Br)cc(Br)cc32)cc(I)c1OCc1ccccc1 , readout=Biochem EGFR %Inhibition) returns 25.9

The reported Biochem EGFR %Inhibition of the molecule CNS(=O)(=O)c1ccc2c(c1)C(=Cc1cc(OC)c3c(c1)OCO3)C(=O)N2 was 22.1

// CNS(=O)(=O)c1ccc2c(c1)C(=Cc1cc(C(C)C)c(Oc3ccccc3)c(C(C)C)c1)C(=O)N2 : Biochem EGFR %Inhibition value = -11.4
